# pIC50 listing for each entry below
- Test system: A549
- measurementNotes: Antiproliferative activity against human A549 cells assessed as reduction in cell viability incubated for 72 hr by MTT assay
- conditionParameters: A549, 72 h
# pIC50: negative log10 of molar concentration; output just the value

{"columns": ["chemicalSmiles", "assayedTarget", "pIC50"],
 "data": [
  ["CNC(=O)c1ccccc1Nc1nc(Nc2ccc(-n3cccc3C(=O)O)cc2OC)ncc1Cl", "A549", 5.60]
]}

Kindly review the next compound as well.
Enter recorded pIC50 with A549 for CNC(=O)c1ccccc1Nc1nc(Nc2ccc(-n3cccc3C(=O)N3CCOCC3)cc2OC)ncc1Cl here.
5.66

---

- System: A549
- measurementNotes: Antiproliferative activity against human A549 cells assessed as reduction in cell viability incubated for 72 hr by MTT assay
- conditionParameters: A549, 72 h
pIC50: −log10 of the molar value.
readoutLabel: pIC50

Use the examples below as a reference point.
{"columns": ["chemicalSmiles", "result"],
 "data": [
  ["COc1cc(-n2cccc2C(=O)N2CCN(C)CC2)ccc1Nc1ncc(Cl)c(Nc2ccccc2NS(C)(=O)=O)n1", "< 5.00"],
  ["COc1cc(-n2cccc2C(=O)N2CCCCC2)ccc1Nc1ncc(Cl)c(Nc2ccccc2NS(C)(=O)=O)n1", "< 5.00"],
  ["COc1cc(-n2cccc2C(=O)NCCO)ccc1Nc1ncc(Cl)c(Nc2ccccc2NS(C)(=O)=O)n1", "< 5.00"],
  ["COc1cc(-n2cccc2C(=O)N2CCC(O)CC2)ccc1Nc1ncc(Cl)c(Nc2ccccc2NS(C)(=O)=O)n1", "< 5.00"],
  ["CNC(=O)c1ccccc1Nc1nc(Nc2ccc(-n3cccc3C(=O)NCCO)cc2OC)ncc1Cl", "< 5.00"],
  ["COc1cc(-n2cccc2C(=O)N2CCN(CCO)CC2)ccc1Nc1ncc(Cl)c(Nc2ccccc2NS(C)(=O)=O)n1", "< 5.00"],
  ["CNC(=O)c1ccccc1Nc1nc(Nc2ccc(-n3cccc3C(=O)N3CCC(C)CC3)cc2OC)ncc1Cl", "< 5.00"]
]}

Kindly review the next compound as well.
Specify measured pIC50 for CCN1CCN(C(=O)c2cccn2-c2ccc(Nc3ncc(Cl)c(Nc4ccccc4NS(C)(=O)=O)n3)c(OC)c2)CC1 .
< 5.00

---

- Tested on: A549
- measurementNotes: Antiproliferative activity against human A549 cells assessed as reduction in cell viability incubated for 72 hr by MTT assay
- conditionParameters: A549, 72 h
# IC50 listing for each entry below

Use the examples below as a reference point.
{"columns": ["chemicalSmiles", "result"],
 "data": [
  ["CNC(=O)c1ccccc1Nc1nc(Nc2ccc(-n3cccc3C(=O)N3CCC(O)CC3)cc2OC)ncc1Cl", "> 10 µM"],
  ["CNC(=O)c1ccccc1Nc1nc(Nc2ccc(-n3cccc3C(=O)N3CCCC3)cc2OC)ncc1Cl", "> 10 µM"]
]}

Kindly review the next molecule as well.
Specify measured IC50 for CNC(=O)c1ccccc1Nc1nc(Nc2ccc(-n3cccc3C(=O)N3CCN(CCO)CC3)cc2OC)ncc1Cl .
> 10 µM

// provenance: ChEMBL document CHEMBL4665881
